test system: TK-10 renal; assay: NCI-60 one-dose screen, 48 h; conditions: 10 µM unless noted
The panel holds about 83,000 compounds, 20% with a hit somewhere; the sample as a whole holds those more often. The source made the active and inactive calls. The calls were made as follows: active = growth percent below 10; inactive = the rest.
Hi! Could you answer with just one of these? t (active), f (inactive)

Examples with answers:
# compound, category.label
rows = [
    ("Cc1ccc(/C=C2\\CN(C(=O)OC(C)(C)C)C/C(=C\\c3ccc(C)cc3)C2=O)cc1", "f"),
    ("Oc1ccc(CN2CCC(N3CCCCC3)CC2)c2cccnc12", "t"),
    ("C=C1C(=O)O[C@H]2[C@H]1CC/C(COC(=O)CCSCCC(=O)OC/C1=C/CC[C@@]3(C)O[C@H]3[C@H]3OC(=O)C(=C)[C@@H]3CC1)=C\\CC[C@@]1(C)O[C@@H]21", "t"),
]

Prompt line: Assay result, entry CCCCN[C@H]1CC[C@@]2(C)[C@@H](CC[C@@]3(C)[C@H]2[C@H](O)C[C@H]2/C(=C(\CCC=C(C)C)C(=O)OC)[C@@H](OC(C)=O)C[C@@]23C)[C@@H]1C — outcome?
Response line: f

Prompt line: Assay result, entry Cc1cc(Cl)ccc1NC(=O)c1cc2ccccc2cc1O — outcome?
Response line: t

Prompt line: Assay result, entry COc1ccccc1NC(=O)Cn1cc(CN2CCN(c3ccnc4cc(Cl)ccc34)CC2)nn1 — outcome?
Response line: f

Prompt line: Assay result, entry CS(=O)(=O)c1cccc(-c2c(-c3cccc(OS(N)(=O)=O)c3)nc3sccn23)c1 — outcome?
Response line: f

Prompt line: Assay result, entry N#CC1=C(N)Oc2c(sc3c(Br)cccc23)C1c1ccc(F)cc1 (stereo not drawn) — outcome?
Response line: f

* * *

test system: M14 melanoma; experiment: NCI-60 one-dose screen, 48 h; conditions: 10 µM unless noted
The panel holds about 83,000 compounds, 20% with a hit somewhere; the sample as a whole holds those more often. The source made the active and inactive calls. How the source made its calls: active means growth percent below 10; inactive means the rest.
Hi! Could you answer with just one of these? label 1 (active), label 0 (inactive)

Examples with answers:
# compound, category.label
data = [
    ("Fc1cc(F)cc(C(c2c[nH]c3ccccc23)c2c[nH]c3ccccc23)c1", "label 0"),
    ("CC1(C)c2[nH]c3ccccc3c2C[C@]2(C)[C@H]3CC=C4[C@@H]5C[C@@](C)(C(N)=O)CC[C@]5(C)CC[C@@]4(C)[C@]3(C)CC[C@@H]12", "label 0"),
    ("C=CCn1c(SCC(=O)NCc2cc(C)c(O)c(C)c2)nc2ccc(Cl)cc2c1=O", "label 0"),
    ("CC1(C)CCC(S(=O)(=O)c2ccc3c(c2)/C(=N\\O)c2cc(S(=O)(=O)N4CCC(O)(c5cccc(C(F)(F)F)c5)CC4)ccc2-3)CC1", "label 1"),
    ("O=C(O)c1ccc(-n2cc(/C=N/Nc3ccc(F)cc3)c(-c3cc4ccccc4oc3=O)n2)cc1", "label 0"),
]

Prompt line: Assay result, entry COc1ccc(-c2nc3c(c(-c4ccccc4)nn3-c3ccccc3)c(-c3ccc(N4CCOCC4)cc3)c2C#N)cc1 — outcome?
Response line: label 0

Prompt line: Assay result, entry CCOC(=O)CSc1ncnc2c1c(-c1ccccc1)c(-c1ccccc1)n2-c1ccc(C)cc1 — outcome?
Response line: label 0

Prompt line: Assay result, entry O=c1oc2ccccc2cc1C1=NN=C(SCc2ccccc2)SC1 — outcome?
Response line: label 0

Prompt line: Assay result, entry O=C1/C(=C/c2ccc(Cl)c(Cl)c2)CN(C(=O)C(Cl)Cl)C/C1=C\c1ccc(Cl)c(Cl)c1 — outcome?
Response line: label 1

Prompt line: Assay result, entry CCOC(=O)c1cc(-c2ccc([N+](=O)[O-])cc2)n(-c2ccc(C(=O)O)c(O)c2)c1C — outcome?
Response line: label 0
